Tested on: SNB-19 CNS
method-notes: NCI-60 one-dose screen, 48 h (100 = growth as untreated, 0 = no growth, -100 = all killed)
recorded-conditions: 10 µM unless noted
This is part of a sample that, as a whole, favours compounds with a hit. Of some 83,000 tested, about 20% had one in any assay.
measurement-name: growth (%)
Value expressed in %; do not type the unit.

Below, each entry is followed by its recorded growth result.
* Oc1ccc(Cl)c(Nc2nc(SCCN3CCOCC3)nc3c2cnn3CC(Cl)c2ccc(Br)cc2)c1 (stereo not drawn) | 37.8
* O=C(NNC(=O)c1ccc(OCc2nc3ccc(Cl)cc3[nH]2)cc1)Nc1ccc(Cl)c(C(F)(F)F)c1 | 61.1
* COc1ccc2[nH]c(O)c(N=Nc3nc(-c4ccc(Br)cc4)cs3)c2c1 | 36.4
* COc1cccc(NC(=O)c2ccc(NC(=O)CCl)s2)c1 | 73.8
* Cc1nc(N)ncc1-c1ccc2ncnc(N3CCc4cc(F)c(Cl)cc43)c2c1 | 68.3
* COc1ccc2[nH]c(O)c(N=Nc3nc(-c4ccc(C#N)cc4)cs3)c2c1 | 77.2

Query the reported growth for SNB-19 CNS; item: COc1ccccc1Nc1nnc(-c2c[nH]c3ccccc23)o1
43.4

Quick one: COc1ccc(NC2=C(I)C(=O)C(C)=C(C)C2=O)cc1
81.2

Quick one: Cc1ccc2nc(COc3ccc(C(=O)NNC(=O)Nc4ccc(Cl)c(C(F)(F)F)c4)cc3)[nH]c2c1
24.9

Quick one: COc1cc(C2CC(c3ccc(C(F)(F)F)cc3)=Nc3c(N)nc(N)nc3N2)ccc1Oc1nc(Nc2ccc(F)cc2)nc(N(C)C)n1 (stereo not drawn)
49.3

Quick one: O=CNc1cccc(-n2cnc3cc(-c4ccc(O)cc4)ccc32)c1
43.3

Quick one: O=C1N/C(=N\c2nccs2)S/C1=C\c1ccc([N+](=O)[O-])cc1
9.41

Quick one: COc1ccc(N=Nc2c(N)nn3c(N)c(C#N)c(-c4ccccc4)nc23)cc1
27.1

Quick one: Cc1cc(C)c2[nH]c(=O)c(C(c3nnnn3Cc3ccc4c(c3)OCO4)N3CCN(C)CC3)cc2c1 (stereo not drawn)
101

Quick one: O=c1[nH]c2ccccc2cc1COc1ccc(Nc2nccc(-c3ccc(Cl)cc3)n2)cc1
93.4

Quick one: CC(C)C[C@H](NC(=O)[C@@H]1CCCCCCCCCCC(=O)N[C@@H](CC(=O)N2CCC[C@@H]2C2CCCC2)C(=O)N1)B(O)O
6.18

Quick one: Nc1nc2cc(-c3ccc4ncnc(NCc5ccccc5)c4c3)ccc2o1
23

Quick one: Cc1ccc(C2CC(c3ccc(NC(=O)Nc4ccccc4)cc3)=NN2c2ccc(S(C)(=O)=O)cc2)cc1 (stereo not drawn)
4.8

Quick one: Cn1cc(-c2cc(N)n3nc(-c4c[nH]c5ccccc45)cc3n2)c2ccccc21
-88.7

Quick one: CC(C)(C)C(=O)c1c2c(c3ccc4c5ccccc5ccc4n13)C(=O)c1ccccc1C2=O
88.7

Quick one: O=C(N/N=C/c1ccc(-c2cccc([N+](=O)[O-])c2)s1)c1[nH]c2ccc(Br)cc2c1-c1ccccc1
56.1

Quick one: COc1c(B(O)O)cccc1-c1nc2ccc3cn[nH]c3c2c2c1CCCC2
54.9

Quick one: Cc1ccc2nc(SCc3ccccc3F)n(-c3ccccc3)c(=O)c2c1
96.8

Quick one: NC(=Nc1ccc(OCCCCCCCCn2cnnn2)cc1)c1ccccc1
20.8
